Target: sickle hemoglobin (HbS) (Homo sapiens, UniProt P68871+P69905, E7V)
Assay: solubility assay (Csat assay) of sickle hemoglobin
Assay type: biochemical
Settings: 5 mM; read-out: % increase in Solubility of HbS
molecules and their reported activation at 5000 µM
Value expressed in %; do not type the unit.

The following molecules have reported results that may help.
smilesInput	activation at 5000 µM (%)
C=C(CCC)C(=O)c1ccc(OCCCC(=O)O)c(Cl)c1Cl	37
C=C(CC)C(=O)c1ccc(OCCCC(=O)O)c(Cl)c1Cl	27

Continue with the molecule presented below.
## Task Write down the reported activation at 5000 µM of C=C(CC)C(=O)c1ccc(OC2(C(=O)O)CCC2)c(Cl)c1Cl , test system: sickle hemoglobin (HbS) (Homo sapiens, UniProt P68871+P69905, E7V).
## Result 30

====

Biological target: sickle hemoglobin (HbS) (Homo sapiens, UniProt P68871+P69905, E7V)
Test: solubility assay (Csat assay) of sickle hemoglobin
Type: biochemical
Settings: 7 mM; read-out: % increase in Solubility of HbS
measurementLabel: activation at 7000 µM (%)
Value expressed in %; do not type the unit.

The following molecules have reported results that may help.
smilesInput	activation at 7000 µM / %
C=C(CC)C(=O)c1ccc(OCCC(=O)O)c(Cl)c1Cl	43
C=C(CC)C(=O)c1ccc(OCCCCCC(=O)O)c(Cl)c1Cl	26

## Task Which activation at 7000 µM is listed for C=C(CCC)C(=O)c1ccc(OCCCC(=O)O)c(Cl)c1Cl ?
## Result 46

====

compounds and their reported activation at 3000 µM
Molecular target: sickle hemoglobin (HbS) (Homo sapiens, UniProt P68871+P69905, E7V)
Experiment: solubility assay (Csat assay) of sickle hemoglobin
Type: biochemical
Details: 3 mM; read-out: % increase in Solubility of HbS

The following compounds have reported results that may help.
compound	activation at 3000 µM
C=C(CC)C(=O)c1ccc(OC(C)(C)C(=O)O)c(Cl)c1Cl [Example 8]	11%
C=C(CC)C(=O)c1ccc(OC2(C(=O)O)CCC2)c(Cl)c1Cl [Example 6]	19%
C=C(CCC)C(=O)c1ccc(OC2(C(=O)O)CCC2)c(Cl)c1Cl [Example 7]	14%
C=C(CC)C(=O)c1ccc(OCCCCC(=O)O)c(Cl)c1Cl [Example 4]	21%
C=C(CCC)C(=O)c1ccc(OCCCC(=O)O)c(Cl)c1Cl [Example 3]	18%
C=C(CC)C(=O)c1ccc(OCCC(=O)O)c(Cl)c1Cl [Example 1]	26%
C=C(CC)C(=O)c1ccc(OCCCC(=O)O)c(Cl)c1Cl [Example 2]	22%

Continue with the compound presented below.
## Task Write down the reported activation at 3000 µM of C=C(CC)C(=O)c1ccc(OCCCCCC(=O)O)c(Cl)c1Cl [Example 5] , test system: sickle hemoglobin (HbS) (Homo sapiens, UniProt P68871+P69905, E7V).
## Result 13%

====

Molecular target: sickle hemoglobin (HbS) (Homo sapiens, UniProt P68871+P69905, E7V)
Test: solubility assay (Csat assay) of sickle hemoglobin
Type: biochemical
Conditions: 5 mM; read-out: % increase in Solubility of HbS
measurementLabel: activation at 5000 µM (%)
Value expressed in %; do not type the unit.

smilesInput	targetDesc	activation at 5000 µM [%]
C=C(CC)C(=O)c1ccc(OCCCCCC(=O)O)c(Cl)c1Cl	sickle hemoglobin (HbS) (Homo sapiens, UniProt P68871+P69905, E7V)	18

## Task Which activation at 5000 µM is listed for C=C(CCC)C(=O)c1ccc(OC2(C(=O)O)CCC2)c(Cl)c1Cl ?
## Result 30

## Task Which activation at 5000 µM is listed for C=C(CC)C(=O)c1ccc(OCCCCC(=O)O)c(Cl)c1Cl ?
## Result 34

## Task Which activation at 5000 µM is listed for C=C(CC)C(=O)c1ccc(OC(C)(C)C(=O)O)c(Cl)c1Cl ?
## Result 21

## Task Which activation at 5000 µM is listed for C=C(CC)C(=O)c1ccc(OCCC(=O)O)c(Cl)c1Cl ?
## Result 33

====

molecules and their reported activation at 9000 µM
Target: sickle hemoglobin (HbS) (Homo sapiens, UniProt P68871+P69905, E7V)
Test: solubility assay (Csat assay) of sickle hemoglobin
Type: biochemical
Settings: 9 mM; read-out: % increase in Solubility of HbS
Value expressed in %; do not type the unit.

The following molecules have reported results that may help.
smilesInput	experimentalResult
C=C(CC)C(=O)c1ccc(OCCCCCC(=O)O)c(Cl)c1Cl	35
C=C(CCC)C(=O)c1ccc(OC2(C(=O)O)CCC2)c(Cl)c1Cl	39
C=C(CC)C(=O)c1ccc(OCCCC(=O)O)c(Cl)c1Cl	46
C=C(CC)C(=O)c1ccc(OC(C)(C)C(=O)O)c(Cl)c1Cl	53
C=C(CC)C(=O)c1ccc(OCCC(=O)O)c(Cl)c1Cl	69
C=C(CC)C(=O)c1ccc(OC2(C(=O)O)CCC2)c(Cl)c1Cl	48

## Task Which activation at 9000 µM is listed for C=C(CC)C(=O)c1ccc(OCCCCC(=O)O)c(Cl)c1Cl ?
## Result 80

## Task Which activation at 9000 µM is listed for C=C(CCC)C(=O)c1ccc(OCCCC(=O)O)c(Cl)c1Cl ?
## Result 51

====

Molecular target: sickle hemoglobin (HbS) (Homo sapiens, UniProt P68871+P69905, E7V)
Test: solubility assay (Csat assay) of sickle hemoglobin
Format: biochemical
Details: 7 mM; read-out: % increase in Solubility of HbS
molecules and their reported activation at 7000 µM
Value expressed in %; do not type the unit.

## Task Which activation at 7000 µM is listed for C=C(CC)C(=O)c1ccc(OC(C)(C)C(=O)O)c(Cl)c1Cl ?
## Result 41

## Task Which activation at 7000 µM is listed for C=C(CCC)C(=O)c1ccc(OC2(C(=O)O)CCC2)c(Cl)c1Cl ?
## Result 26

## Task Which activation at 7000 µM is listed for C=C(CC)C(=O)c1ccc(OCCCC(=O)O)c(Cl)c1Cl ?
## Result 37

## Task Which activation at 7000 µM is listed for C=C(CC)C(=O)c1ccc(OC2(C(=O)O)CCC2)c(Cl)c1Cl ?
## Result 34

## Task Which activation at 7000 µM is listed for C=C(CC)C(=O)c1ccc(OCCCCC(=O)O)c(Cl)c1Cl ?
## Result 52
